- target_or_system: endogenous ENaC in HAE cells (Homo sapiens, UniProt P37088+P51168+P51170)
- Construct: endogenous in cells; host or cells: primary human airway (bronchial) epithelial cells from transplant or donor lungs
- Sequence (P37088 1-178): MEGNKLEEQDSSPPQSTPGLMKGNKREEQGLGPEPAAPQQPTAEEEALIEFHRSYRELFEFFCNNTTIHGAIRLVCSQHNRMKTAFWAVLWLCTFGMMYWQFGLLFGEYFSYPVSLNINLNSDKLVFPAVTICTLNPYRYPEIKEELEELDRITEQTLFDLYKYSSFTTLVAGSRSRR
- Sequence (P37088 205-669): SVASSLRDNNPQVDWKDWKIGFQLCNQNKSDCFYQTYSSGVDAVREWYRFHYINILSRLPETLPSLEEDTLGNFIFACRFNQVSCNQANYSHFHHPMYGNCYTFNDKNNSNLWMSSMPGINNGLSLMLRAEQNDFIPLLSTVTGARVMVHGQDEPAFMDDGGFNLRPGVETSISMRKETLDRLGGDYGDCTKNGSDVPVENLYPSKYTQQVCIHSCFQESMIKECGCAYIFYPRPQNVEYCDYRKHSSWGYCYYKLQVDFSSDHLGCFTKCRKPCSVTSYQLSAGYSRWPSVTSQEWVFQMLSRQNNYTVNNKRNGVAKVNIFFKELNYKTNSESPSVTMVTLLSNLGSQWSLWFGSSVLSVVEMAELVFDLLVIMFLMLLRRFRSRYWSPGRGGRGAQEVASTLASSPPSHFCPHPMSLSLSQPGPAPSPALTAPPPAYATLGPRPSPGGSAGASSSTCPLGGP
- Sequence (P51168 whole entry): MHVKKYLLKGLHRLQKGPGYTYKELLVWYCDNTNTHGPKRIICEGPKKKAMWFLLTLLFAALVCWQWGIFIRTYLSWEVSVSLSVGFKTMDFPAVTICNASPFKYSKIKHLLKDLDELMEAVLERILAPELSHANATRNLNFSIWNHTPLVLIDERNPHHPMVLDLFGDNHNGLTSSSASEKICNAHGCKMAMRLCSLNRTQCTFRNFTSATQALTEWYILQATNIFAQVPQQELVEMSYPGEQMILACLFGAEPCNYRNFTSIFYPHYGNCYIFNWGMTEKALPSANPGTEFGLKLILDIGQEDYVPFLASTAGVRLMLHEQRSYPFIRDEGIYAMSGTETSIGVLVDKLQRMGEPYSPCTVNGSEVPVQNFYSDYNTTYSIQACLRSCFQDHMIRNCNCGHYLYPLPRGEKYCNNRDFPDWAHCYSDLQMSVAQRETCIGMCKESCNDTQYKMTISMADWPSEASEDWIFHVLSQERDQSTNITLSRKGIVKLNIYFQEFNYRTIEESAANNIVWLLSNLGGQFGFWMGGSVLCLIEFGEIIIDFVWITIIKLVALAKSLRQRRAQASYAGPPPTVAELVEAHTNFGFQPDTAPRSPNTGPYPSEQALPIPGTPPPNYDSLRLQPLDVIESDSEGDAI
- Sequence (P51170 1-138): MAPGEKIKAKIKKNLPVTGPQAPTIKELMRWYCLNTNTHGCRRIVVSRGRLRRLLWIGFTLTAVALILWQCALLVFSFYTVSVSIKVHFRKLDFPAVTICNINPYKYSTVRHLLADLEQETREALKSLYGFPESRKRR
- Sequence (P51170 182-649): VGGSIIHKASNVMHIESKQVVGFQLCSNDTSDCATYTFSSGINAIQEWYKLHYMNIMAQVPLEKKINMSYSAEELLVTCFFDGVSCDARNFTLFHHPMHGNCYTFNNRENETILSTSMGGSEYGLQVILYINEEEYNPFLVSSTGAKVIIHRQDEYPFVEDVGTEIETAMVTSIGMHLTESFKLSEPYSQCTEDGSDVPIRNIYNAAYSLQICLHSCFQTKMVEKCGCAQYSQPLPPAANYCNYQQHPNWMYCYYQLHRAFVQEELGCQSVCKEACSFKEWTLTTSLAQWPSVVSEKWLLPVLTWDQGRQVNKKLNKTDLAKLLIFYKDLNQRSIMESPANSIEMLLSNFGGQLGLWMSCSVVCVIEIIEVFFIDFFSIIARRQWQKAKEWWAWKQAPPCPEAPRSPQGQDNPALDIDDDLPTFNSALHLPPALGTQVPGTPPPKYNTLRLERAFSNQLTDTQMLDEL
- assay_details: Amiloride-sensitive short circuit current in primary human airway epithelial (HAE) cell monolayers, Ussing chamber
- Type: cell-based
- settings: HBE cells; stated jointly for HBE or mpkCCDc14; read-out: Ki, block of endogenous ENaC activity
measured_property: Ki

For record Ac-DLRGALPHPLQRLRTPPPPNPARSAR-NH2 [α-26] the listed Ki is 50 to 100 µM

###

- target_or_system: mouse ENaC (Mus musculus, UniProt Q61180+Q9WU38+Q9WU39, DEL206-231)
- Construct: expressed in transfected cells; host or cells: Xenopus laevis oocytes (cRNA injection)
- assay_details: Two-electrode voltage clamp, amiloride-sensitive whole cell Na+ current in Xenopus oocytes expressing wild-type αβγ ENaC
- Type: cell-based
measured_property: Ki

For record Ac-DLRGALPHPLQRLRTPPPPNPARSAR-NH2 [α-26] the listed Ki is ~3 µM

###

- target_or_system: endogenous ENaC in HAE cells (Homo sapiens, UniProt P37088+P51168+P51170)
- Construct: endogenous in cells; host or cells: primary human airway (bronchial) epithelial cells from transplant or donor lungs
- assay_details: Amiloride-sensitive short circuit current in primary human airway epithelial (HAE) cell monolayers, Ussing chamber
- Type: cell-based
- settings: HBE cells; stated jointly for HBE and mpkCCDc14; read-out: apparent Ki, inhibition of endogenous ENaC activity
pKi: −log10 of the molar value.
measured_property: pKi

For record Ac-EAGSMRSTWEGTPPRFLNLIPLLVFNENEKGKARDFFTGRKRK-NH2 [γ-43] the listed pKi is ~5.70

###

- target_or_system: mouse ENaC (Mus musculus, UniProt Q61180+Q9WU38+Q9WU39, DEL206-231)
- Construct: expressed in transfected cells; host or cells: Xenopus laevis oocytes (cRNA injection)
- Sequence (Q61180 with tags, fused parts or gaps DEL206-231): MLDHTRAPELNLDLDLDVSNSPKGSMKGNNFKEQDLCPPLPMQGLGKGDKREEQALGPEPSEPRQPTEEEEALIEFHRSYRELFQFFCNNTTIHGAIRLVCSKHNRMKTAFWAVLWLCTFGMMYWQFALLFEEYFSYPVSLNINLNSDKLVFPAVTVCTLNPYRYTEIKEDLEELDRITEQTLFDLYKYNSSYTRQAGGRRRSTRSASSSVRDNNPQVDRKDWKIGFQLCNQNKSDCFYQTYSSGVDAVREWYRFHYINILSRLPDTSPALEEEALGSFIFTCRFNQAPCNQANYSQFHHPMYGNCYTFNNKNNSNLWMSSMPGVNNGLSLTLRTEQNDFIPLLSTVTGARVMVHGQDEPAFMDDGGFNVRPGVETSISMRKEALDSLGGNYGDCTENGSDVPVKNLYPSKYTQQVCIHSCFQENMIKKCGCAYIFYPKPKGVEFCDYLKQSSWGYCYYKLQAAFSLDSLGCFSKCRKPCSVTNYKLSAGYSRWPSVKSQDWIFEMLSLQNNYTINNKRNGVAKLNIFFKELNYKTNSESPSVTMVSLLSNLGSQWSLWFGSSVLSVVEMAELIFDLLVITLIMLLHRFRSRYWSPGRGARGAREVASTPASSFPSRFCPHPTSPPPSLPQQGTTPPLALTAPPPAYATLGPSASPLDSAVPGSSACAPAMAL
- Sequence (Q9WU38 1-638): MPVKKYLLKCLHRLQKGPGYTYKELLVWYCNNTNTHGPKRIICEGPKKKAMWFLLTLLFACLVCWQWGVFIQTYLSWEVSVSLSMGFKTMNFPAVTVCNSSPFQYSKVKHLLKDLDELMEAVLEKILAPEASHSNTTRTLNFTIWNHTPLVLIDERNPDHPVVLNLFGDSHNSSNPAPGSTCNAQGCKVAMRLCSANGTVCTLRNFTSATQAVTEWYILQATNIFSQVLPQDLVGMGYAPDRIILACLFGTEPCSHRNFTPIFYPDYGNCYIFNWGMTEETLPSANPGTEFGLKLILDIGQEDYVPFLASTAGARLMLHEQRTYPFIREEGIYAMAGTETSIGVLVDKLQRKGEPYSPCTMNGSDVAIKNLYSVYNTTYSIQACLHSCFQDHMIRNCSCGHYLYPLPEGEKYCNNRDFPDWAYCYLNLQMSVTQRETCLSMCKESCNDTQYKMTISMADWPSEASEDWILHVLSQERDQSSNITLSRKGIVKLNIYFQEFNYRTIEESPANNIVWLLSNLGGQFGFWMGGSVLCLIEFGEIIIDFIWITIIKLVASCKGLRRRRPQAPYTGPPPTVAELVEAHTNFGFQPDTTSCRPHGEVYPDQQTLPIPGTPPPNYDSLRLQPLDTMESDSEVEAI
- Sequence (Q9WU39 1-655): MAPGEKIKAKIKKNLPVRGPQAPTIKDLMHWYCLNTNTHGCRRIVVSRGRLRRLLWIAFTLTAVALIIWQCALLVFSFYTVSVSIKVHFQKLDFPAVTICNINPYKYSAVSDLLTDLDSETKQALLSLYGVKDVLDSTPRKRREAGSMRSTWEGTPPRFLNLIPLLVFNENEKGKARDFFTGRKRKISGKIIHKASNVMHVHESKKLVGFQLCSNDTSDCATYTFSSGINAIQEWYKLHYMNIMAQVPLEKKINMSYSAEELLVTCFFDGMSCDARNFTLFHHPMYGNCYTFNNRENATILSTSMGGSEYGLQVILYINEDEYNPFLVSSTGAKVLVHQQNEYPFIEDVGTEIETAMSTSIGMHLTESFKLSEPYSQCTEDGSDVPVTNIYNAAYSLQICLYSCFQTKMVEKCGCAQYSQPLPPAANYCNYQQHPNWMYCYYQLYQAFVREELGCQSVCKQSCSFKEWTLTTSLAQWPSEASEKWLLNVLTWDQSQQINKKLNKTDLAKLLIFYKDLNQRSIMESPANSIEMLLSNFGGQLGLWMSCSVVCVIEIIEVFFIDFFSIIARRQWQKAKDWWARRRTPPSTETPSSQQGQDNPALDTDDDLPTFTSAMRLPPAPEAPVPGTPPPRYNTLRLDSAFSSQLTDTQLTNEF
- assay_details: Two-electrode voltage clamp, amiloride-sensitive whole cell Na+ current in Xenopus oocytes expressing wild-type αβγ ENaC
- Format: cell-based
- settings: holding potential −100 mV; read-out: IC50 at holding potential −100 mV
- Text: Oocyte Expression—cRNAs for α, β, γ mouse ENaC (wild-type and mutant) subunits and mouse prostasin were synthesized with T3 or T7 m-Message mMachineTM (Ambion, Austin, Tex.). […] Data and Statistical Analyses—and mean time of inhibition are expressed as the mean with a 95% confidence interval (CI); otherwise, data were expressed as the mean ±S.E. (n), where “n” equals the number of independent experiments analyzed. […]
measured_property: IC50 (nM)
Use nM as the unit, but write only the number.

Case Ac-DLRGALPHPLQRLRTPPPPNPARSAR-NH2 [α-26] , mouse ENaC (Mus musculus, UniProt Q61180+Q9WU38+Q9WU39, DEL206-231), IC50 recorded as 2900
